assay: Cytotoxicity in human L02 cells assessed as survival rate at 16 ug/ml measured after 24 hrs by CCK-8 method relative to control; assay type: toxicity, cell-based; settings: at 16 µg/mL, read-out: Survival
ASSAY_ENDPOINT: viability at 24 h, 16 ug/ml

Given CCCCCCNC(=O)C[N+](C)(C)CCCCCOc1ccc2ccc(=O)oc2c1CC=C(C)C.[Br-] , state its recorded viability at 24 h, 16 ug/ml.
60%

====

tested on: Staphylococcus aureus; assay: Antibacterial activity against Staphylococcus aureus ATCC 29213 measured after 18 hrs by CLSI based broth microdilution method; assay type: functional
# Y = MIC below 20 µg/mL (exclusive); N = MIC at/above 20 µg/mL

Solved entries:
# SMILES_ENTRY, CLASS
records = [
    ("CCCCCNC(=O)C[N+](C)(C)CCCCCOc1ccc2ccc(=O)oc2c1CC=C(C)C.[Br-]", "Y"),
    ("CCCCN(CCCC)C(=O)C[N+](C)(C)CCCCOc1ccc2ccc(=O)oc2c1CC=C(C)C.[Br-]", "Y"),
    ("CCNC(=O)C[N+](C)(C)CCCOc1ccc2ccc(=O)oc2c1CC=C(C)C.[Br-]", "N"),
    ("CCCCCNC(=O)C[N+](C)(C)CCCCOc1ccc2ccc(=O)oc2c1CC=C(C)C.[Br-]", "Y"),
    ("CC(C)=CCc1c(OCCCCC[N+](C)(C)CC(=O)N(C(C)C)C(C)C)ccc2ccc(=O)oc12.[Br-]", "Y"),
    ("CCN(CC)C(=O)C[N+](C)(C)CCCOc1ccc2ccc(=O)oc2c1CC=C(C)C.[Br-]", "N"),
    ("CCNC(=O)C[N+](C)(C)CCCCOc1ccc2ccc(=O)oc2c1CC=C(C)C.[Br-]", "N"),
    ("CCCCCNC(=O)C[N+](C)(C)CCCOc1ccc2ccc(=O)oc2c1CC=C(C)C.[Br-]", "Y"),
]

Hello, is MIC of the following compound strictly smaller than 20 µg/mL? CCCN(CCC)C(=O)C[N+](C)(C)CCCCOc1ccc2ccc(=O)oc2c1CC=C(C)C.[Br-]
Y

====

system: Staphylococcus aureus; assay: Antibacterial activity against methicillin-resistant Staphylococcus aureus clinical isolate 20 measured after 18 hrs by CLSI based broth microdilution method; type: functional
ASSAY_ENDPOINT: MIC

# COMPOUND, TESTED_ON, ASSAY_ENDPOINT, ENDPOINT_VALUE
rows = [
    ("CCCCCCNC(=O)C[N+](C)(C)CCCOc1ccc2ccc(=O)oc2c1CC=C(C)C.[Br-]", "Staphylococcus aureus", "MIC", "4 µg/mL"),
]

Given CCCCN(CCCC)C(=O)C[N+](C)(C)CCCCOc1ccc2ccc(=O)oc2c1CC=C(C)C.[Br-] , state its recorded MIC.
2 µg/mL

Moving on to CCCCCCNC(=O)C[N+](C)(C)CCCCOc1ccc2ccc(=O)oc2c1CC=C(C)C.[Br-]
4 µg/mL

Moving on to CCN(CC)C(=O)C[N+](C)(C)CCCOc1ccc2ccc(=O)oc2c1CC=C(C)C.[Br-]
128 µg/mL

Moving on to CCNC(=O)C[N+](C)(C)CCCCCOc1ccc2ccc(=O)oc2c1CC=C(C)C.[Br-]
64 µg/mL

Moving on to CCCCN(CCCC)C(=O)C[N+](C)(C)CCCCCOc1ccc2ccc(=O)oc2c1CC=C(C)C.[Br-]
1 µg/mL

====

assay: Hemolytic activity in sheep erythrocyte assessed as hemolysis incubated for 1 hr by absorbance based analysis; format: toxicity, cell-based, Ovis aries; conditions: sheep erythrocytes
ASSAY_ENDPOINT: HC50 at 1 h

Take a look at these entries with their results.
# SMILES_ENTRY, HC50 at 1 h
rows = [
    ("CC(C)=CCc1c(OCCC[N+](C)(C)CC(=O)N(C(C)C)C(C)C)ccc2ccc(=O)oc12.[Br-]", "> 640 µg/mL"),
    ("CCNC(=O)C[N+](C)(C)CCCCCOc1ccc2ccc(=O)oc2c1CC=C(C)C.[Br-]", "> 1280 µg/mL"),
    ("CCCCCCNC(=O)C[N+](C)(C)CCCCCOc1ccc2ccc(=O)oc2c1CC=C(C)C.[Br-]", "1040 µg/mL"),
    ("CCCCNC(=O)C[N+](C)(C)CCCCOc1ccc2ccc(=O)oc2c1CC=C(C)C.[Br-]", "> 1280 µg/mL"),
    ("CCCCN(CCCC)C(=O)C[N+](C)(C)CCCOc1ccc2ccc(=O)oc2c1CC=C(C)C.[Br-]", "1090 µg/mL"),
    ("CC(C)=CCc1c(OCCCC[N+](C)(C)CC(=O)N(C(C)C)C(C)C)ccc2ccc(=O)oc12.[Br-]", "1270 µg/mL"),
]

Given CCNC(=O)C[N+](C)(C)CCCCOc1ccc2ccc(=O)oc2c1CC=C(C)C.[Br-] , state its recorded HC50 at 1 h.
> 1280 µg/mL

Moving on to CCCCN(CCCC)C(=O)C[N+](C)(C)CCCCCOc1ccc2ccc(=O)oc2c1CC=C(C)C.[Br-]
989 µg/mL

Moving on to CCCCCNC(=O)C[N+](C)(C)CCCCCOc1ccc2ccc(=O)oc2c1CC=C(C)C.[Br-]
> 1280 µg/mL

Moving on to CCCCCNC(=O)C[N+](C)(C)CCCOc1ccc2ccc(=O)oc2c1CC=C(C)C.[Br-]
1200 µg/mL

Moving on to CCCCCCNC(=O)C[N+](C)(C)CCCCOc1ccc2ccc(=O)oc2c1CC=C(C)C.[Br-]
> 1280 µg/mL

Moving on to CCCN(CCC)C(=O)C[N+](C)(C)CCCOc1ccc2ccc(=O)oc2c1CC=C(C)C.[Br-]
> 1280 µg/mL

Moving on to CC(C)=CCc1c(OCCCCC[N+](C)(C)CC(=O)N(C(C)C)C(C)C)ccc2ccc(=O)oc12.[Br-]
736 µg/mL

Moving on to CCCN(CCC)C(=O)C[N+](C)(C)CCCCCOc1ccc2ccc(=O)oc2c1CC=C(C)C.[Br-]
779 µg/mL

Moving on to CCCCNC(=O)C[N+](C)(C)CCCOc1ccc2ccc(=O)oc2c1CC=C(C)C.[Br-]
> 1280 µg/mL

Moving on to CC(C)=CCc1c(OCCCC[N+](C)(C)CC(=O)N(CC(C)C)CC(C)C)ccc2ccc(=O)oc12.[Br-]
> 1280 µg/mL

Moving on to CCCNC(=O)C[N+](C)(C)CCCCOc1ccc2ccc(=O)oc2c1CC=C(C)C.[Br-]
> 1280 µg/mL

Moving on to CC(C)=CCc1c(OCCC[N+](C)(C)CC(=O)N(CC(C)C)CC(C)C)ccc2ccc(=O)oc12.[Br-]
> 1280 µg/mL

====

tested on: Staphylococcus aureus; experiment: Antibacterial activity against methicillin-resistant Staphylococcus aureus clinical isolate 16 measured after 18 hrs by CLSI based broth microdilution method; format: functional
ASSAY_ENDPOINT: MIC (µg/mL)
Note: unit µg/mL is implicit; provide only the numeric part.

Take a look at these entries with their results.
# MOLECULE, TESTED_ON, MIC / µg/mL
measured = [
    ("CCNC(=O)C[N+](C)(C)CCCOc1ccc2ccc(=O)oc2c1CC=C(C)C.[Br-]", "Staphylococcus aureus", 128),
    ("CCCCNC(=O)C[N+](C)(C)CCCCOc1ccc2ccc(=O)oc2c1CC=C(C)C.[Br-]", "Staphylococcus aureus", 16),
    ("CCN(CC)C(=O)C[N+](C)(C)CCCCCOc1ccc2ccc(=O)oc2c1CC=C(C)C.[Br-]", "Staphylococcus aureus", 32),
    ("CCCCCNC(=O)C[N+](C)(C)CCCCOc1ccc2ccc(=O)oc2c1CC=C(C)C.[Br-]", "Staphylococcus aureus", 8),
    ("CCCCCNC(=O)C[N+](C)(C)CCCOc1ccc2ccc(=O)oc2c1CC=C(C)C.[Br-]", "Staphylococcus aureus", 8),
    ("CCN(CC)C(=O)C[N+](C)(C)CCCOc1ccc2ccc(=O)oc2c1CC=C(C)C.[Br-]", "Staphylococcus aureus", 128),
    ("CCCCNC(=O)C[N+](C)(C)CCCOc1ccc2ccc(=O)oc2c1CC=C(C)C.[Br-]", "Staphylococcus aureus", 32),
    ("CCCCN(CCCC)C(=O)C[N+](C)(C)CCCCOc1ccc2ccc(=O)oc2c1CC=C(C)C.[Br-]", "Staphylococcus aureus", 2),
    ("CC(C)=CCc1c(OCCCC[N+](C)(C)CC(=O)N(C(C)C)C(C)C)ccc2ccc(=O)oc12.[Br-]", "Staphylococcus aureus", 16),
    ("CCNC(=O)C[N+](C)(C)CCCCOc1ccc2ccc(=O)oc2c1CC=C(C)C.[Br-]", "Staphylococcus aureus", 128),
]

Given CCCCNC(=O)C[N+](C)(C)CCCCCOc1ccc2ccc(=O)oc2c1CC=C(C)C.[Br-] , state its recorded MIC.
8

Moving on to COc1ccc2ccc(=O)oc2c1CC=C(C)C [OSTHOLE]
64

Moving on to CCNC(=O)C[N+](C)(C)CCCCCOc1ccc2ccc(=O)oc2c1CC=C(C)C.[Br-]
32

Moving on to CC(C)=CCc1c(OCCCCC[N+](C)(C)CC(=O)N(CC(C)C)CC(C)C)ccc2ccc(=O)oc12.[Br-]
1

Moving on to CCCCN(CCCC)C(=O)C[N+](C)(C)CCCCCOc1ccc2ccc(=O)oc2c1CC=C(C)C.[Br-]
1

Moving on to CC(C)=CCc1c(OCCCC[N+](C)(C)CC(=O)N(CC(C)C)CC(C)C)ccc2ccc(=O)oc12.[Br-]
2

Moving on to CCCCCNC(=O)C[N+](C)(C)CCCCCOc1ccc2ccc(=O)oc2c1CC=C(C)C.[Br-]
2

Moving on to CCCN(CCC)C(=O)C[N+](C)(C)CCCOc1ccc2ccc(=O)oc2c1CC=C(C)C.[Br-]
32

Moving on to CCN(CC)C(=O)C[N+](C)(C)CCCCOc1ccc2ccc(=O)oc2c1CC=C(C)C.[Br-]
64

Moving on to CCCCCCNC(=O)C[N+](C)(C)CCCOc1ccc2ccc(=O)oc2c1CC=C(C)C.[Br-]
4

Moving on to CCCCN(CCCC)C(=O)C[N+](C)(C)CCCOc1ccc2ccc(=O)oc2c1CC=C(C)C.[Br-]
4

Moving on to CC(C)=CCc1c(OCCCCC[N+](C)(C)CC(=O)N(C(C)C)C(C)C)ccc2ccc(=O)oc12.[Br-]
4
